assay: Inhibition of cell division of fertilized eggs of Strongylocentrotus intermedius at 7 X 10 ' -5 M; parameters: species or system Egg; conditions: fertilized sea urchin eggs
Readout Label: inhibition at 70 µM (%)
One number for each entry, in %.

Consider CC(C)[C@H](CC[C@@H](C)[C@H]1C[C@@H](O)[C@H]2[C@@H]3C[C@H](O)[C@H]4C[C@@H](O)CC[C@]4(C)[C@H]3CC[C@@]21C)O[C@@H]1OC[C@@H](O)[C@H](O)[C@H]1O [RATHBUNIOSIDE R1] . Its measured inhibition at 70 µM is 100

Data origin: ChEMBL document CHEMBL1155728
